All figures here come from the supplement of paper PMC10065799.

- studyTarget: Hck (UniProt P08631)
- Sequence (P08631 whole entry, looked up): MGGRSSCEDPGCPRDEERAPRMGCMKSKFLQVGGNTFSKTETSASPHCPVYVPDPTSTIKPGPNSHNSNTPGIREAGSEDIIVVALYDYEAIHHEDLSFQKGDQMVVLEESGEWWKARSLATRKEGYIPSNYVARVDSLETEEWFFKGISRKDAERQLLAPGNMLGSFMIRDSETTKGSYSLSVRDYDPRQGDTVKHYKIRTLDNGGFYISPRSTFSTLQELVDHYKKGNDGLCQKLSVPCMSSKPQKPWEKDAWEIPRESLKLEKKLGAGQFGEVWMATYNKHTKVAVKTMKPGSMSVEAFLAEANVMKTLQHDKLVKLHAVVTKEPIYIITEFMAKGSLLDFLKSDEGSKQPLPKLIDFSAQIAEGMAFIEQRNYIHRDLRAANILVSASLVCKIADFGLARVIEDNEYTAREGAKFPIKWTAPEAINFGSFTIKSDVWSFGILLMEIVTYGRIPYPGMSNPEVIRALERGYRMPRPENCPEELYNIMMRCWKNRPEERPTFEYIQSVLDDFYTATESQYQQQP
- protocolNotes: phosphorylation enrichment, bacterial display (enrichment ratio); higher = better substrate or ligand; peptides without Tyr show the background;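 note: 11-residue human phosphosite peptides and single-mutation variants displayed on the E. coli surface, counted by deep sequencing, each peptide's frequency after selection divided by its frequency in the unselected input library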;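 note: frequency after pTyr selection over input frequency; kinase dosed for 20-30% of maximal phosphorylation in three min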
Using phosphorylation enrichment as the sorting value, the categories are bucket A = under 0.5, bucket B = from 0.5 up to 0.8, bucket C = 0.8 and over

sequenceText	labelClass
FTHSDYQFGQR [PKP2_Y166_S169G_YF]	bucket B
ISSLLYELLEE [TRPC6_Y896_R895L]	bucket C
DFPIGYPSFLA [TBCK_Y153_YF]	bucket A
AGGTRYRYVSQ [UCN3_Y95_R91G]	bucket A

Bin this entry: PSQRRNVFFFS [PTEN_Y174_Y174N_YF]
bucket C

Into which bin does this sequence go? VNKIYHPDFIV [LIG3_Y768_Y768H]
bucket A

Input LNPDGYKKAYE [CPXM2_Y427_E428K] ; output its category
bucket B

Hi, small favor: classify TEALYYTDDTA [ADPRS_Y75] by its phosphorylation enrichment when you get a moment.
bucket C

Note: place this sequence into its band. Item: NPPGMYPVTGP [LPP_Y346]
bucket A

Which bin, given its phosphorylation enrichment, does KLADMYGGGKD [CDH1_Y876_E880K] occupy?
bucket A

Could you tell me which band ANNQRYAFMPL [TMEM87B_Y460] belongs to?
bucket A

Could you tell me which band ITNVLYHVVGW [GBA_Y412_L410V] belongs to?
bucket C

###

- studyTarget: FGFR3 (UniProt P22607)
- Sequence (P22607 whole entry, looked up): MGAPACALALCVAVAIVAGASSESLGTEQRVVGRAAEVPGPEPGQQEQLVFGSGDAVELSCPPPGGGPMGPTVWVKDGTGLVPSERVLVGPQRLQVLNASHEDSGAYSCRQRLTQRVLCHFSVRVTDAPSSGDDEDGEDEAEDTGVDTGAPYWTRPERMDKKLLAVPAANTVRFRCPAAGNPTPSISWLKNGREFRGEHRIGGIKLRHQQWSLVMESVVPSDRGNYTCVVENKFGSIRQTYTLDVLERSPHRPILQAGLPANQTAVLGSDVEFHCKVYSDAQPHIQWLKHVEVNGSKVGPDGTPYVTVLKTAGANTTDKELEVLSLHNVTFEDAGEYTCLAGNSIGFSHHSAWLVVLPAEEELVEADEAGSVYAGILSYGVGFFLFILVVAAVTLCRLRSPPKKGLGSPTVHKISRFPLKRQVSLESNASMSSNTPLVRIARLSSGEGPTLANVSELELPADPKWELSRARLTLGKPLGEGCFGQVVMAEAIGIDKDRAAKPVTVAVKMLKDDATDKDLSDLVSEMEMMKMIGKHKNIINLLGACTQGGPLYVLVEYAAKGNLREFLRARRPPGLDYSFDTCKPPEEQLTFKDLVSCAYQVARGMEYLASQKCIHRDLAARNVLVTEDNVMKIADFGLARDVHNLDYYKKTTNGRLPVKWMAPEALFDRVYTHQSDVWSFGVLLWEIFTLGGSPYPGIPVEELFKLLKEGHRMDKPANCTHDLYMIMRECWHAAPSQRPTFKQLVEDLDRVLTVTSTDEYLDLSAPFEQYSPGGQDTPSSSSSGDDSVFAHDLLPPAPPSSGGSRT
- protocolNotes: phosphorylation enrichment, bacterial display (enrichment ratio); higher = better substrate or ligand; peptides without Tyr show the background
Could you label it rule met if measured phosphorylation enrichment is 0.6 or higher, and rule not met otherwise?

sequenceText	studyTarget	labelClass
PDDPDYSLVDD [PSTPIP2_Y323_N322D]	FGFR3 (UniProt P22607)	rule met
TEQMAYCPIQC [SHC4_Y403]	FGFR3 (UniProt P22607)	rule met
NHRNQYQALKP [CLSPN_Y887]	FGFR3 (UniProt P22607)	rule not met
QADVVYVNTQL [MERTK_Y872_I871V]	FGFR3 (UniProt P22607)	rule met
FSPPFYHRNCM [HGD_Y334_R330S_YF]	FGFR3 (UniProt P22607)	rule met
IAAEYYDNLPH [DEGS1_Y284]	FGFR3 (UniProt P22607)	rule met
DLITAYRAHGF [PDHA1_Y118_H113D]	FGFR3 (UniProt P22607)	rule not met
VVIVLYFSLWK [SLC6A2_Y249]	FGFR3 (UniProt P22607)	rule not met
KYLENYLNCLL [PLD2_Y169_R172C]	FGFR3 (UniProt P22607)	rule met
LAEMNYVHRDL [EPHB1_Y740]	FGFR3 (UniProt P22607)	rule not met

API: above_or_equal(metric=phosphorylation enrichment, cutoff=0.6) for item PLQDVYKIGGI [EEF1A2_Y254]
rule met

Threshold query (phosphorylation enrichment >= 0.6) on NTFEKYLGEEF [TF_Y669_YF]
rule met

Does the reported phosphorylation enrichment for FGEFRYRSVIK [CFTR_Y517_D513G_YF] fall at or above the 0.6 mark?
rule not met

###

Reported phosphorylation enrichment values for the following sequences.
- studyTarget: FGFR3 (UniProt P22607)
- protocolNotes: phosphorylation enrichment, bacterial display (enrichment ratio); higher = better substrate or ligand; peptides without Tyr show the background
Format: numeric value only, no unit, no commentary.

Here is how some sequences turned out for phosphorylation enrichment.
sequenceText	phosphorylation enrichment
CGQDPCIRELG [UROS_Y19_Y19C]	0.569
AGQERYRAITS [RAB11B_Y73]	0.466
TPIFPYLLPKS [PLD2_Y580_T577I_YF]	1.57
NTYEKYLEEEY [TF_Y669_G671E]	0.86
DLLMQHPKAQG [FAM83C_Y600_Y600H]	0.892
KVITDYFVDMK [MPP4_Y566_YF]	0.795
IVFTSYFLTIL [TAS2R16_Y239]	0.976
LSSNLYFRWLT [CNGA3_Y168_P163L_YF]	1.51

Give phosphorylation enrichment for the following sequence: QIGRKYKKVRF [F8_Y442_R437Q]
1.11

Return value of phosphorylation enrichment for input EDASEYFENYI [PARP4_Y214] , no commentary.
0.83

Identify measured phosphorylation enrichment corresponding to CDKEFYSVHNK [MET_Y1235_Y1230C_YF]
0.606

Recall and state the measured phosphorylation enrichment for IRNRDYDDIDD [TTYH2_Y424_T419I] .
0.676

Give phosphorylation enrichment for RPPFTYATLIH [FOXP3_Y342_R347H]
1.16

Tell me measured phosphorylation enrichment for YGIAQYCCRMG [LRRK2_Y2023] please.
0.583
